Assign Ki to each entry below.
Measured on: S1R (Rattus norvegicus)
Construct: liver homogenates (250 μg/sample) from male Sprague Dawley rats; from tissue; host or cells: liver homogenate of male Sprague Dawley rats
Sequence (Q9R0C9 whole entry): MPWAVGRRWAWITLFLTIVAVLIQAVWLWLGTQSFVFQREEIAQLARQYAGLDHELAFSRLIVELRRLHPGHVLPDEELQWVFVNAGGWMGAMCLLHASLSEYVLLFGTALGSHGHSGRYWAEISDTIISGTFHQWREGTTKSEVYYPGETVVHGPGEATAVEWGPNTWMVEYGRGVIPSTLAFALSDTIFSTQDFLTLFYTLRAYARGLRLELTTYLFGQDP
Test name: S1R radioligand binding assay ([3H]-pentazocine, rat liver homogenates)
Condition: [3H]-pentazocine 2 nM, rat liver homogenates; mean ± SEM; read-out: Ki S1R
The reply should consist of the numeric value with the unit placed after it.

# query: Ki of entry COc1cc2c(cc1OC)CN(CCCC(=O)c1ccc(F)cc1)CC2 1660 nM

Likewise for O=C(CCCN1CCC(c2ccncc2)CC1)c1ccc(F)cc1 ? 13.9 nM

Note, next up: COc1ccc(CN(C)CCCC(=O)c2ccc(F)cc2)cc1OC 301 nM

Then O=C(CCCN1CCN(C2CCCCC2)CC1)c1ccc(F)cc1 ? 18.8 nM

Try this compound too: O=C(CCCN1CCN(c2ccc(F)cc2)CC1)c1ccc(F)cc1 70.2 nM

Quick one: Cc1ccc(CN(C)CCCC(=O)c2ccc(F)cc2)c(C)c1 59.7 nM

Reference for the values: paper PMC11173765
